Target: T1, human EphA4 (binding to human Ephrin A5) (Homo sapiens, UniProt P54764)
T1 construct: made in house; not restated for the human SEAP-His protein
T1 sequence (P54764 20-547): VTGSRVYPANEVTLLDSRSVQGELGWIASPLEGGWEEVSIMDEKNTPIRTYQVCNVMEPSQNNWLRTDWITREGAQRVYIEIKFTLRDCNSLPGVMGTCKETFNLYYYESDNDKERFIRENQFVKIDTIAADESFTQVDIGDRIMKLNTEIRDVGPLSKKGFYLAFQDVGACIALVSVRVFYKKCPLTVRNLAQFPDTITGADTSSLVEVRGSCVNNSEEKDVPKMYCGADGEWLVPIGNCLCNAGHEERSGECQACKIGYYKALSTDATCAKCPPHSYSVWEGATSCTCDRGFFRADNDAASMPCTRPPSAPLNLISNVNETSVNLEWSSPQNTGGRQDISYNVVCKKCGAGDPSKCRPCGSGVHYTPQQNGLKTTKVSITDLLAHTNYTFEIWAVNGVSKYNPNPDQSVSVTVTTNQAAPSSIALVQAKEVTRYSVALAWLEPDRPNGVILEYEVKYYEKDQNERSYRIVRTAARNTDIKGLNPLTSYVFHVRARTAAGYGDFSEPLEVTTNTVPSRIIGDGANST
Assay: Human EphA4-human ligand binding inhibition ELISA of humanized antibodies (biotinylated Ephrin A5-Fc)
Details: biotinylated human Ephrin A5-Fc 0.7 nM
# key: entry, value: IC50
Result type: IC50 (nM)

Molecule: 154 (antibody, V domains shown, synthetic humanized antibody heavy chain variable region sequence; synthetic humanized antibody light chain variable region sequence) VH: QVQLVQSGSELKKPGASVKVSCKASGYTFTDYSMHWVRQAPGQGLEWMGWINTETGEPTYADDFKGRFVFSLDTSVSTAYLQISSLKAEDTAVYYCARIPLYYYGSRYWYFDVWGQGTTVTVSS VL: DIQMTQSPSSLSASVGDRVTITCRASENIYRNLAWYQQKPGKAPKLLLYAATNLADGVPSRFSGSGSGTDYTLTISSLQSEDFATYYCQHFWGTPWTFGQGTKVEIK
Result value: 2.5
--
Molecule: 152 (antibody, V domains shown, synthetic humanized antibody heavy chain variable region sequence; synthetic humanized antibody light chain variable region sequence) VH: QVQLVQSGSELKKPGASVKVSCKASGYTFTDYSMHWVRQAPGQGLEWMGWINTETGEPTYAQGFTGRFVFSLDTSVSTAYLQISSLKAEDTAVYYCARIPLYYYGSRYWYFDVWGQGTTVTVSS VL: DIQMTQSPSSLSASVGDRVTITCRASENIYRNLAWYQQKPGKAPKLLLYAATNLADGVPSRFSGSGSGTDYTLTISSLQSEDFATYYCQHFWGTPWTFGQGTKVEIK
Result value: 2
